# TEST_TARGET: UniProt P07947
# ASSAY_PROCEDURE: YES1 kinase inhibition, ADP Glo assay (Promega)
# Type: biochemical
# CONDITION_SET: compound 10 nM; read-out: YES1 enzyme, % inhibition, 10 nM
# Protocol: To evaluate the inhibitory activity against YES1 kinase of the compound according to the present invention, ADP Glo assay (Promega) was used, and the following method was performed with reference to the Promega kinase enzyme system protocol. To proceed with the experiment, buffers A-F and compound dilution plates were required. To prepare A.4X reaction buffer, 800 μl of 5X reaction buffer and 200 μl of distilled water were used. […] Luminescence was measured using a luminescence plate reader. […]
READOUT_TYPE: inhibition at 0.01 µM (%)

(P) CCN(CC)C1CCN(c2cc(-c3ccc(NC(=O)OC(C)(C)C)c(OC)c3)c3c(N)ncnn23)CC1
(Q) COc1cc(-c2cc(N3CCC4(CCCN4)CC3)n3ncnc(N)c23)ccc1NC(=O)OC(C)(C)C
# input Between the two listed entries P and Q , which has its inhibition at 0.01 µM at the higher number? Answer by stating the label of the chosen item.
# output Q

(1) COc1cc(-c2cc(N3CC4(CCN(C)CC4)C3)n3ncnc(N)c23)ccc1NC(=O)OC(C)(C)C
(2) CNC1CCN(CCc2cc(-c3ccc(NC(=O)OC(C)(C)C)c(OC)c3)c3c(N)ncnn23)CC1
(3) COc1cc(-c2cc(N3CCC4(CCNC4=O)CC3)n3ncnc(N)c23)ccc1NC(=O)OC(C)(C)C
# input Order the 3 molecules from highest to lowest inhibition at 0.01 µM. Give me the labels in the order the question wants.
# output 2, 1, 3

* * *

GI50 by entry:
# Test system: KYSE-70 esophageal cancer cell line
# ASSAY_PROCEDURE: Cell growth inhibition of KYSE-70 (Sulforhodamine B)
# Assay type: cell-based
# CONDITION_SET: Homo sapiens; KYSE-70, 72 hours; read-out: KYSE70 GI50

COc1cc(-c2cc(N3CCC4(CCC(=O)N4)CC3)n3ncnc(N)c23)ccc1NC(=O)OC(C)(C)C    ≤ 100 nM

# input for lookup
# input Fill blank: measured GI50 of the compound COc1cc(-c2cc(N3CCC(CN(C)C)C3)n3ncnc(N)c23)ccc1NC(=O)OC(C)(C)C (stereo not shown) is ____.
# output 100 to 1000 nM

* * *

# TEST_TARGET: YES1 kinase (Homo sapiens)
# Sequence (P07947 whole entry): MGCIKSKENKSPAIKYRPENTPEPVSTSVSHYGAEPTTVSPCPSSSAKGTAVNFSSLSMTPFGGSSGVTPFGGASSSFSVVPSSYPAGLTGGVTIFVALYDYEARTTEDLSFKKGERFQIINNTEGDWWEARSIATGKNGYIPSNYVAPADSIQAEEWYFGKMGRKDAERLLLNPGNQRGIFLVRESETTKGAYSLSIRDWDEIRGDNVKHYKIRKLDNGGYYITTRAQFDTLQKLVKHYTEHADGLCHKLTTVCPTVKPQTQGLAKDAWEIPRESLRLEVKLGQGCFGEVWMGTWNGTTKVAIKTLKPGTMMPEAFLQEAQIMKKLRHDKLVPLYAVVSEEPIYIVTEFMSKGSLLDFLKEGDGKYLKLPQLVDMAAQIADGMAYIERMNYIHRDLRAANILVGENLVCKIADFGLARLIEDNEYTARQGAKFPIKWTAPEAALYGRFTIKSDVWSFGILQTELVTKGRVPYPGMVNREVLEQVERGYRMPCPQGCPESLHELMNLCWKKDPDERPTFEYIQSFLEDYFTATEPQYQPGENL
# ASSAY_PROCEDURE: YES1 kinase inhibition, ADP Glo assay (Promega)
# Assay type: biochemical
# CONDITION_SET: compound 10 nM; read-out: YES1 enzyme, % inhibition, 10 nM
READOUT_TYPE: inhibition at 0.01 µM (%)

(a) COc1cc(-c2cc(N3CCC(CO)CC3)n3ncnc(N)c23)ccc1NC(=O)OC(C)(C)C [Example 102]
(b) COc1cc(-c2cc(N3CCC4(CN(C)C4)C3)n3ncnc(N)c23)ccc1NC(=O)OC(C)(C)C [Example 37]
# input Between the two listed entries a and b , which has its inhibition at 0.01 µM at the higher number? Answer by stating the label of the chosen item.
# output a

(1) COc1cc(-c2cc(N3CCC(CCN)CC3)n3ncnc(N)c23)ccc1NC(=O)OC(C)(C)C [Example 107]
(2) COc1cc(-c2cc(N3CCC(CN(C)C)C3)n3ncnc(N)c23)ccc1NC(=O)OC(C)(C)C (stereo not shown) [Example 20]
# input Compare reported inhibition at 0.01 µM values for 1 and 2 . Which is lower? Answer by stating the label of the chosen item.
# output 2
(2: 36%, 1: 52%)
